Hello, the source for this data is ChEMBL document CHEMBL3112473, in case you need it.

# measurement_notes: Cytotoxicity against human BE-SK-N-BE(2) cells assessed as cell viability at 100 uM after 48 to 72 hrs by trypan blue exclusion assay
# Assay type: cell-based
# condition_context: read-out: Activity
reported_endpoint: viability at 100 µM (%)
API: value field is a number in %; no unit string.

Quick note, viability at 100 µM for `CC(C)=NNc1nc(-c2ccc(Cl)cc2)cs1` landed at 30
